tested on: Ixodes scapularis nymphs; test: Residual activity, treated vials aged before loading (Example 9); assay type: in vivo; conditions: residual activity at 1 week after treatment
quantity: LC90

compound	observed
C=C(C)[C@@H]1CCC2=CC(=O)C[C@@H](C)[C@]2(C)C1 [Compound 7, Nootkatone]	0.13 percent concentration, wt:vol
C=C(C)C1CC=C2C=CCC(C)C2(C)C1 (stereo not drawn)	524.656 percent concentration, wt:vol
C=C(C)[C@@H]1CCC2=CC(=O)C[C@@H](C)[C@]2(C)C1 [Compound 8, Nootkatone]	0.071 percent concentration, wt:vol

###

tested on: Aedes aegypti adults; experiment: Residual activity, treated bottles aged before loading (Example 9); format: in vivo; conditions: residual activity at 1 week after treatment

compound	LC50
C=C(C)[C@@H]1CCC2=CC(=O)C[C@@H](C)[C@]2(C)C1 [Compound 8, Nootkatone]	0.0065 percent concentration, wt:vol

###

Below is a list of entries, each paired with its recorded I. scapularis nymphs (24 h), number killed/number tested value.
System: nymphal Ixodes scapularis
Assay: Treated-vial biocidal screening, 2% acetone solutions (Example 2)
Format: in vivo
Settings: 2% acetone solution (wt./vol.) dried in vials; 24 h
Protocol: Samples of the compounds listed below Were obtained from Dr. Karchesy, a co-inventor, and screened for biocidal activities against nymphal Ixodes scapularis. In this example, 2% acetone solutions (wt./vol.) of the compounds were applied to inner surfaces of 2-dram friction cap vials. Vials and caps were treated then allowed to dry for a minimum of 4 hours before placing 10 nymphs in each container. […]
quantity: I. scapularis nymphs (24 h), number killed/number tested

molecule	system tested	observed
CC(C)=CCc1ccc(O)c(=O)cc1C(C)C	nymphal Ixodes scapularis	1/10
C=C(C)C1CC=C2C=CCC(C)C2(C)C1 (centres unmarked)	nymphal Ixodes scapularis	10/10
C[C@@H]1CCC=C2CCC(C3(C)CO3)C[C@]21C (some centres unmarked) [Compound 13, valencene-11,12-epoxide]	nymphal Ixodes scapularis	10/10
C=C(C)[C@@H]1CCC2=CCC[C@@H](C)[C@]2(C)C1	nymphal Ixodes scapularis	10/10
C=C(C)[C@@H]1CCC2=CC(=O)C[C@@H](C)[C@]2(C)C1	nymphal Ixodes scapularis	10/10

###

System: X. cheopis adults
Test: Flea bioassay, treated vials (Example 9)
Format: in vivo
Details: Xenopsylla cheopis, 24 h, 24 h exposure; 95% CI in parentheses; read-out: LC50
Procedure: Flea Colonies. Adult X. cheopis fleas (1–3 wk old) were obtained from a colony founded more than eight years ago using adults received from Tom Schwan, Rocky Mountain Laboratories, Hamilton, Mont. The area from which these original adult fleas were obtained, and the resulting colony, have no known histories of pesticide exposure. Tick and Flea Bioassays. […] Tick and flea susceptibility was evaluated using a modified disposable pipette method. […]
quantity: LC50 (mg/L)

molecule	system tested	observed
C=C(C)C1CCC23OC2C(=O)C[C@@H](C)[C@]3(C)C1 (stereo partly shown) [Compound 17, nootkatone-1,10-epoxide]	X. cheopis adults	170
C=C(CO)C1CCC2=CCC[C@@H](C)[C@]2(C)C1 (stereo partly shown) [Compound 10, 13-hydroxy-valencene]	X. cheopis adults	83
C=C(C=O)C1CCC2=CCC[C@@H](C)[C@]2(C)C1 (stereo partly shown)	X. cheopis adults	49
C[C@@H]1CC(=O)C2OC23CCC(C2(C)CO2)C[C@@]13C (stereo partly shown) [Compound 18, nootkatone-1,10-11,12-diepoxide]	X. cheopis adults	640

###

Test system: Aedes aegypti adults
Assay: Residual activity, treated bottles aged before loading (Example 9)
Assay type: in vivo
Settings: residual activity at 4 weeks after treatment
Description: Mosquit Bioassay. Adult mosquitoes were tested using the bottle bioassay method of Brogden, W. G., and McAllister, J. C., J. Am. Mosq. Control Assoc. 14:159–64 (1998), with minor modifications. […] Morbidity and mortality were recorded at 15, 30, 45, and 60 min and 24 hour intervals. […] The dose-mortality data was evaluated with probit analysis, using the LdP Line software, to determine LC50 and LC90 values.

molecule	LC50
C=C(C)[C@@H]1CCC2=CC(=O)C[C@@H](C)[C@]2(C)C1 [Compound 8, Nootkatone]	0.02 percent concentration, wt:vol
C=C(C)[C@@H]1CCC2=CC(=O)C[C@@H](C)[C@]2(C)C1 [Compound 9, Nootkatone]	0.018 percent concentration, wt:vol

###

System: I. scapularis nymphs
Assay: Tick bioassay, modified disposable pipette method, treated vials (Example 9)
Type: in vivo, Ixodes scapularis
Details: Ixodes scapularis, 24 h
Method: Tick Colonies. […] There was no known pesticide used at this location. Ticks were maintained at 21° C., 90% RH, and received a 16:8 h (light:dark) cycle as described in […]. Med. […] Tick and Flea Bioassays. […] A control treated with acetone only was run with each series. Tick and flea susceptibility was evaluated using a modified disposable pipette method. See, Barnard, D. R., et al., J. Econ. […] Three to 4 holes were made in the plastic cap to allow for air exchange. […]
quantity: log10 LC50 (log10 of the value in µg/mL)

molecule	log10 LC50
Cc1ccc(C(C)C)cc1O	1.83
C=C(C)C1CCC23OC2C(=O)C[C@@H](C)[C@]3(C)C1 (some centres unmarked) [Compound 17, nootkatone-1,10-epoxide]	2.30
C=C(C=O)C1CCC2=CCC[C@@H](C)[C@]2(C)C1 (some centres unmarked)	1.77
C[C@@H]1CC(=O)C2OC23CCC(C2(C)CO2)C[C@@]13C (some centres unmarked) [Compound 18, nootkatone-1,10-11,12-diepoxide]	2.79
C=C(CO)C1CCC2=CCC[C@@H](C)[C@]2(C)C1 (some centres unmarked) [Compound 10, 13-hydroxy-valencene]	1.71
